Data provenance: PubChem BioAssay (EPA / NIEHS)

Read-out: Vascular endothelial growth factor receptor 2 (Homo sapiens)
Assay: BSK_4H_VEGFRII: BioMAP Diversity Plus: 4H Assay for Vascular endothelial growth factor receptor 2 (VEGFR2) Biomarker Activity (AID 2283031)
Details: primary human endothelial cells (HUVEC); actives raise or lower the signal
Calls of active or inactive are those of the source. How the source made its calls: active means hit-call score of the fitted dose curve at least 0.9, where 1 is the maximum; inactive means score below 0.9.
I would appreciate it if you answered using one of these outcomes: 1 for active, -1 for inactive

Below are worked cases with known answers.
Nc1nc2ncc(CNc3ccc(C(=O)N[C@@H](CCC(=O)O)C(=O)O)cc3)nc2c(=O)[nH]1 | -1
CCCCCCc1ccc(O)cc1O | -1
C1=CCCC=CCCC=CCC1 | -1
O=C(CCCCCCCCc1cccnc1)N1CCC(C=C(c2ccccc2)c2ccccc2)CC1 | 1
CC(C)=CCCC(C)=CC=O | -1
CC(=O)c1ccc2c(c1)[C@H](NC(=O)c1ccc(F)cc1)[C@@H](O)C(C)(C)O2 | -1
O=C1CCC(N2C(=O)c3ccccc3C2=O)C(=O)N1 (stereo not drawn) | -1
COC(=O)CC(=O)OC | -1
COc1ccc2sc(C(=O)Nc3nnn[nH]3)c(OC(C)C)c2c1 | 1
CC(=O)OC[C@H]1O[C@@](COC(C)=O)(O[C@H]2O[C@H](COC(C)=O)[C@@H](OC(C)=O)[C@H](OC(C)=O)[C@H]2OC(C)=O)[C@@H](OC(C)=O)[C@@H]1OC(C)=O | -1

With those in mind, consider the next molecule.
For "Cc1c(-c2cccnc2)c2ccccc2n1CCCCC(=O)O" , what call appears in the results of this test?
-1

====

Read-out: Caspase-3 (Homo sapiens)
Assay: LTEA_HepaRG_CASP3: Life Technologies and Expression Analysis (LTEA) Assay for cysteine-aspartic acid protease (CASP3) using HepaRG (AID 2283477)
Conditions: mRNA level, 48 h; actives raise or lower the signal
Activity calls are given as the source filed them. Rule for the calls: active = hit-call score of the fitted dose curve at least 0.9, where 1 is the maximum; inactive = score below 0.9.
I would appreciate it if you answered using one of these outcomes: active, inactive

Below are worked cases with known answers.
CC(C)CCCCCCCOC(=O)CCCCC(=O)OCCCCCCCC(C)C | inactive
O=C(O)c1cc(N=Nc2ccc(S(=O)(=O)Nc3ccccn3)cc2)ccc1O | inactive
Fc1ccccc1[C@@H](F)COC1CCC(Nc2ncnc3[nH]ncc23)CC1 (stereo not given in full) | active

For "CC(C)CCO" , what call appears in the results of this test?
inactive

For O=c1[nH]c2ccc(S(=O)CCN3CCC(Cc4ccc(F)cc4)CC3)cc2o1 (stereo not given) , what call appears in the results of this test?
inactive

====

Assay: ATG_SREBP_CIS: Attagene CIS-FACTORIAL HepG2 Assay for human Sterol Regulatory Element Binding (SREBP) (AID 2282962)
Conditions: HepG2 Attagene cis-factorial SREBP reporter, mRNA; actives raise or lower the signal
The source made the active and inactive calls. The calls were made as follows: active = hit-call score of the fitted dose curve at least 0.9, where 1 is the maximum; inactive = score below 0.9.
I would appreciate it if you answered using one of these outcomes: active, inactive

For "On1ccccc1=S" , what call appears in the results of this test?
inactive

For "CC(C)c1cccc(C(C)C)c1N1C(=O)c2ccc(O)cc2C1=O" , what call appears in the results of this test?
active

For "O=P(OC(CCl)CCl)(OC(CCl)CCl)OC(CCl)CCl" , what call appears in the results of this test?
active

For O=C(O)CC(O)C(=O)O (stereo not drawn) , what call appears in the results of this test?
inactive

For CC(C)CC(C)(O)C#CC(C)(O)CC(C)C (stereo not drawn) , what call appears in the results of this test?
inactive

For "CCC(C)(C)C(=O)O[C@H]1C[C@@H](C)C=C2C=C[C@H](C)[C@H](CC[C@@H]3C[C@@H](O)CC(=O)O3)[C@H]21" , what call appears in the results of this test?
active

For "CCOc1cccc(-n2cc(C(=O)N3CCN(c4cc(C(=O)O)c5ccccc5c4)CC3)nc2-c2ccc(C)cc2)c1" , what call appears in the results of this test?
active

For "Cc1ccc(C)c(O)c1" , what call appears in the results of this test?
inactive

For "O=C(O)c1cccc(N(Cc2cccnc2)c2ccc(OC(F)F)c(OC(F)F)c2)c1" , what call appears in the results of this test?
inactive

For "CC(=O)OCCC(C)C" , what call appears in the results of this test?
inactive

For "COc1ccc(/C=C/S(=O)(=O)NC(=O)c2ccc(C)cc2Cl)cc1" , what call appears in the results of this test?
inactive

For "CC[C@H]1OC(=O)[C@H](C)[C@@H](O[C@H]2C[C@@](C)(OC)[C@@H](O)[C@H](C)O2)[C@H](C)[C@@H](O[C@@H]2O[C@H](C)C[C@H](N(C)C)[C@H]2O)[C@](C)(O)C[C@@H](C)C(=O)[C@H](C)[C@@H](O)[C@]1(C)O" , what call appears in the results of this test?
inactive

====

Assay: ACEA_AR_antagonist_AUC_viability: ACEA Biosciences xCELLigence Real-Time Cell Analysis on Androgen Receptor Antagonism for Viability (AID 2283776);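 further: 22Rv1 human prostate cancer cells growing on impedance electrode plates; area under impedance growth curve at 80 h after dosing as viability; hits lower the growth signal relative to DMSO meaning cytotoxicity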
Inconclusive results are not listed. Calls of active or inactive are those of the source. The calls were made as follows: active = hit-call score of the fitted dose curve at least 0.9, where 1 is the maximum; inconclusive = response in the unintended direction; inactive = score below 0.9.
MEASUREMENT_NAME: AC50

O=C1OC(=O)C2C3C=CC(C3)C12 (configuration not stated) | inactive
CC(C)CCCCCCCOC(=O)CCCCC(=O)OCCCCCCCC(C)C | inactive
Cn1c(=O)c2c(ncn2C)n(C)c1=O | inactive
O=C(O)c1cccc(Oc2ccccc2)c1 | inactive
COc1ccc(-n2nc(C(F)F)cc2-c2ccc(S(C)=O)cc2)cc1 (configuration not stated) | inactive

Given the entry "CC(C)=CCC/C(C)=C/CO" , report its measured AC50.
25.6 µM (active)

Given the entry CC/C(=C\C(=N/O)C(N)=O)C(C)[N+](=O)[O-] (configuration not stated) , report its measured AC50.
74.2 µM (active)

====

Molecular target: Nuclear receptor subfamily 1 group I member 2 (Homo sapiens)
Test: ATG_PXR_TRANS: Attagene TRANS-FACTORIAL HepG2 Assay for human Pregnane X Receptor (PXR) (AID 2283008)
Results filed as inconclusive are left out. Activity calls are given as the source filed them. Rule for the calls: active = hit-call score of the fitted dose curve at least 0.9, where 1 is the maximum; inconclusive = response in the unintended direction; inactive = score below 0.9.
I would appreciate it if you answered using one of these outcomes: active, inactive

Below are worked cases with known answers.
CC[C@H]1OC(=O)[C@H](C)[C@@H](O[C@H]2C[C@@](C)(OC)[C@@H](O)[C@H](C)O2)[C@H](C)[C@@H](O[C@@H]2O[C@H](C)C[C@H](N(C)C)[C@H]2O)[C@](C)(O)C[C@@H](C)C(=O)[C@H](C)[C@@H](O)[C@]1(C)O | inactive
COC(=O)c1ccccc1O | active
Oc1ccc2c(c1)-c1ccccc1C2 | inactive
CCCCCCc1ccc(O)cc1O | inactive
Nc1cccc(N)c1 | inactive

For "C=CCCCCCCCCC(=O)O" , what call appears in the results of this test?
inactive

For "Cn1cnc([N+](=O)[O-])c1Sc1ncnc2nc[nH]c12" , what call appears in the results of this test?
active

For "C1=CCCC=CCCC=CCC1" , what call appears in the results of this test?
active

For "CCCCCCCCCCCCc1ccccc1" , what call appears in the results of this test?
inactive

For "COc1ccc(/C=C/S(=O)(=O)NC(=O)c2ccc(C)cc2Cl)cc1" , what call appears in the results of this test?
inactive

For CC(C)CC(C)(O)C#CC(C)(O)CC(C)C (stereo not drawn) , what call appears in the results of this test?
active

For "Cn1c(=O)cc(Oc2ccc(F)cc2F)c2cnc(NCC(C)(C)O)nc21" , what call appears in the results of this test?
inactive

For "O=C(O)c1cccc(N(Cc2cccnc2)c2ccc(OC(F)F)c(OC(F)F)c2)c1" , what call appears in the results of this test?
active

For "Cc1ccc(N)cc1O" , what call appears in the results of this test?
inactive

For "COc1ccc2sc(C(=O)Nc3nnn[nH]3)c(OC(C)C)c2c1" , what call appears in the results of this test?
inactive

For "Nc1ccc(Nc2ccccc2)cc1" , what call appears in the results of this test?
inactive

====

Read-out: Pro-epidermal growth factor (Homo sapiens) (UniProt P01133)
Assay: LTEA_HepaRG_EGF: Life Technologies and Expression Analysis (LTEA) Assay for Epidermal growth factor (EGF) using HepaRG (AID 2283489)
Conditions: mRNA level, 48 h; actives raise or lower the signal
Procedure: LTEA_HepaRG is a cell based, multiplexed-readout assay that uses HepaRG, a human liver cell line, with measurements taken at 48 hours after chemical dosing on a 96-well plate.LTEA_HepaRG_EGF is one of 102 assay component(s) measured in the LTEA HepaRG cell culture assay. It is a marker of Cell proliferation, survival, death.Data from the assay component LTEA_HepaRG_EGF was analyzed into 1 endpoint. […]
Active and inactive are the calls of the source. How the source made its calls: active means hit-call score of the fitted dose curve at least 0.9, where 1 is the maximum; inactive means score below 0.9.
I would appreciate it if you answered using one of these outcomes: TRUE = active, FALSE = inactive

Below are worked cases with known answers.
CCCCCCCCO | FALSE
NC(=O)NO | FALSE
COC(=O)c1ccccc1O | FALSE
CC(=O)c1ccc2c(c1)[C@H](NC(=O)c1ccc(F)cc1)[C@@H](O)C(C)(C)O2 | FALSE
CC(C)(O)c1coc(S(=O)(=O)NC(=O)Nc2c3c(cc4c2CCC4)CCC3)c1 | FALSE

For CNS(=O)(=O)c1cc(C(=O)N2CCC(CCN3C4CCC3CC(n3c(C)nc5ccccc53)C4)(c3cccc(F)c3)CC2)c(Cl)cc1F (centres undefined) , what call appears in the results of this test?
FALSE

For "CCCCCCCCCCCCc1ccccc1" , what call appears in the results of this test?
FALSE

For "Cc1c(-c2cccnc2)c2ccccc2n1CCCCC(=O)O" , what call appears in the results of this test?
FALSE
